Values from paper PMC3460462

# targetOfAssay: mFpr1 (Mus musculus)
# Sequence (P33766 whole entry): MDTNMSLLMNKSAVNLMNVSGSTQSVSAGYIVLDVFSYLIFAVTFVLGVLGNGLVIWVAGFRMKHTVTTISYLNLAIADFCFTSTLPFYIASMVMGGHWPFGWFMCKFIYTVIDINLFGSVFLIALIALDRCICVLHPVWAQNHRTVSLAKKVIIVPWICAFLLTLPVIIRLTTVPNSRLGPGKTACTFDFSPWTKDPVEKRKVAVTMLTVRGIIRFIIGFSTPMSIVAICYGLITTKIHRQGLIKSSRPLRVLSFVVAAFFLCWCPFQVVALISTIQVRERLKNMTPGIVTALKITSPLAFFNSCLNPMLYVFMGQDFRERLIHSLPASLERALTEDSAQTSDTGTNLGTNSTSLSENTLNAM
# assayProtocol: FLIPR Ca2+ assay, HEK293T cells transfected with mFpr1 and Gα16
# Assay type: cell-based
measuredAttribute: pEC50
# reply with the number alone; pEC50 is -log10 of concentration in mol/L

Suppose we examine the substance H-RIHIGPGRALYTT-OH [V3gp120 HIV (BK-130)] ; what pEC50 value has been reported?
5.35
